Provide the recorded growth for the entries that follow.
Test system: A498 renal
assay-info: NCI-60 one-dose screen, 48 h (100 = growth as untreated, 0 = no growth, -100 = all killed)
measurement-conditions: 10 µM unless noted
The panel holds about 83,000 compounds, 20% with a hit somewhere; the sample as a whole holds those more often. Activity calls are given as the source filed them. Rule for the calls: active = growth percent below 10; inactive = the rest.

Worked cases, answers included:
{"compound": "COc1ccc(CCN(CC(=O)N(CC(N)=O)C2CCC[C@@H]2OCc2ccccc2)C(=O)CN(C(=O)CN(CCc2ccc(Cl)cc2)C(=O)CN(C(=O)CN(C)Cc2ccccc2F)[C@H](C)C2CCCCC2)[C@H](C)C2CCCCC2)cc1OC (some centres not stated)", "growth": "32% (inactive)"}
{"compound": "O=C(Cc1ccc(NC(=O)c2cccc(Cl)c2)cc1)NCc1ccccc1", "growth": "42.2% (inactive)"}
{"compound": "C=C(C)[C@@H]1CC[C@]2(COC(C)=O)CC[C@]3(C)[C@H](CC[C@@H]4[C@@]5(C)CCCN(C(C)=O)C(C)(C)[C@@H]5CC[C@]43C)[C@@H]12", "growth": "108% (inactive)"}
{"compound": "CCOc1c(OC)cc2c(c1O)C(=O)N[C@@H]1[C@@H](O)[C@@H](O)[C@H](O)C[C@@H]21", "growth": "99.5% (inactive)"}
{"compound": "C=C(C)[C@@H]1CCC[C@]2(C(=O)O)CC[C@]3(C)[C@@H](CC[C@@H]4[C@@]5(C)C/C(=C/c6ccncc6)C(=O)C(C)(C)[C@@H]5CC[C@]43C)[C@@H]12", "growth": "57.7% (inactive)"}
{"compound": "CCOC(=O)C(=Cc1ccc(-c2ccccc2)cc1)C(=O)OCC", "growth": "108% (inactive)"}
{"compound": "COc1cccc(NCc2nnc(Nc3ccc(Cl)cc3)c3ccccc23)c1", "growth": "-26.8% (active)"}
{"compound": "Cn1cc(-c2nn3cc(-c4cccs4)nc3s2)c2cc(F)ccc21", "growth": "7.55% (active)"}

Please give growth for each item listed below.
1. CC/C(Cc1ccccc1)=C(\c1ccc(OCCCN(C)C)cc1)c1ccc(OC(=O)NCc2ccccc2)cc1
2. CCOC(=O)C1=C(C)C(Cl)=N/C1=C\c1[nH]c(Cl)c(C)c1C(=O)OCC
3. Ic1ccccc1I
4. CN(C)c1ccc(-c2nc(-c3ccccc3)c(-c3ccccc3)[nH]2)cc1
5. C/C(=N\O)[C@@H]1CC[C@]2(CO)CC[C@]3(C)[C@H](CC[C@@H]4[C@@]5(C)CCCNC(C)(C)[C@@H]5CC[C@]43C)[C@@H]12

[out]
1: 85.2% (inactive); 2: 104% (inactive); 3: 106% (inactive); 4: 82.4% (inactive); 5: 107% (inactive)

Attribution: PubChem BioAssay (NCI)
